studyTarget: MAP3K2 (human)
measurementDescription: KINOMEscan competition binding
settings: compound 1.0 µM
Collected kinase still bound, per cent of control values appear next to each entry.
Respond numerically; units are % and should not be typed.

Examples with answers:
-- ask Given the compound `Cc1cc(NC(=O)c2cccc(NC(=O)/C=C/CN(C)C)c2)ccc1Nc1nccc(-c2cccnc2)n1` , what is its reported kinase still bound, per cent of control?
-- reply 100

-- ask What measured kinase still bound, per cent of control goes with `CN(C)C/C=C/C(=O)Nc1cccc(C(=O)Nc2ccc(Nc3nccc(-c4c(-c5ccccc5)nn5ccccc45)n3)cc2)c1` ?
-- reply 52

-- ask Form field: reported kinase still bound, per cent of control of `CN(C)C/C=C/C(=O)Nc1cccc(C(=O)Nc2ccc(Nc3nccc(/C(C#N)=C4\Nc5ccccc5S4)n3)cc2)c1`
-- reply 100

Next:
-- ask Would you kindly share the measured kinase still bound, per cent of control for `CN(C)C/C=C/C(=O)Nc1cccc(C(=O)Nc2ccc(Nc3nccc(-c4cccnc4)n3)cc2)c1` ?
-- reply 100

* * *

studyTarget: UniProt:Q08345
Sequence (Q08345 whole entry, looked up): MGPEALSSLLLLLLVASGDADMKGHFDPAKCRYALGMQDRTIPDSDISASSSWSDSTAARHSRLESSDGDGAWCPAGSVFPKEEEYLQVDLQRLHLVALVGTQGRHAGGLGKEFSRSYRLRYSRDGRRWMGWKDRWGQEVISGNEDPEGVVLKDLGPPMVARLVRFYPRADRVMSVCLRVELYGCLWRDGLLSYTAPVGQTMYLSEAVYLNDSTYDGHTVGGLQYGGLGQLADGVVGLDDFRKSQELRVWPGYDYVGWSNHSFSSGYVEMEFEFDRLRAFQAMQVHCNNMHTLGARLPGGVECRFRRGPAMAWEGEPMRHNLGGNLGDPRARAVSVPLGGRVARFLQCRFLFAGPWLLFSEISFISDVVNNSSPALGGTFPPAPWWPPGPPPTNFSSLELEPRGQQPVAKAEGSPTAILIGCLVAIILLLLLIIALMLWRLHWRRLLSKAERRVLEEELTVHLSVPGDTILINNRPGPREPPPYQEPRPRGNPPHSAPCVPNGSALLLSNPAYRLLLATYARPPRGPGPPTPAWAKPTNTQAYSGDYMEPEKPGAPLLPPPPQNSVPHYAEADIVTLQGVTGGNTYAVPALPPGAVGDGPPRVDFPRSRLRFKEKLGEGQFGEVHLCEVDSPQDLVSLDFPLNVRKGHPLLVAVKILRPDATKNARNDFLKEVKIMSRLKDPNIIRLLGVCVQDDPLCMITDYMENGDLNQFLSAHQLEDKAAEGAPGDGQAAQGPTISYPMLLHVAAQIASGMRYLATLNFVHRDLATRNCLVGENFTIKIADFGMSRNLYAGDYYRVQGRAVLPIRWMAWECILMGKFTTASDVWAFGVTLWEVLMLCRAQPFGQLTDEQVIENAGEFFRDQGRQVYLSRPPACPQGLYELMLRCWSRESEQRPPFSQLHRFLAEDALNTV
assayReadout: pIC50
To interpret pIC50, take it as minus log10 of a concentration measured in moles per litre.

-- ask For the record `CN(C)C/C=C/C(=O)Nc1cccc(C(=O)Nc2ccc(Nc3nccc(-c4c(-c5ccccc5)nn5ccccc45)n3)cc2)c1` , what value of pIC50 is listed for UniProt:Q08345?
-- reply 7.25

* * *

studyTarget: MYLK4 (human)
measurementDescription: KINOMEscan competition binding
settings: compound 1.0 µM
assayReadout: kinase still bound, per cent of control (%)
Give the number; % is assumed, so skip it.

-- ask Give kinase still bound, per cent of control (MYLK4 (human)) of the following compound: `Cc1cc(NC(=O)c2cccc(NC(=O)/C=C/CN(C)C)c2)ccc1Nc1nccc(-c2cccnc2)n1`
-- reply 9.6

-- ask I'm curious: which kinase still bound, per cent of control was measured for `CN(C)C/C=C/C(=O)Nc1cccc(C(=O)Nc2ccc(Nc3nccc(-c4c(-c5ccccc5)nn5ccccc45)n3)cc2)c1` tested on MYLK4 (human)?
-- reply 100

-- ask Lab note: need kinase still bound, per cent of control with MYLK4 (human) for entry `CN(C)C/C=C/C(=O)Nc1cccc(C(=O)Nc2ccc(Nc3nccc(/C(C#N)=C4\Nc5ccccc5S4)n3)cc2)c1` , please look it up.
-- reply 20

Please turn your attention to the following entry.
-- ask Can you look up kinase still bound, per cent of control on MYLK4 (human) for `CN(C)C/C=C/C(=O)Nc1cccc(C(=O)Nc2ccc(Nc3nccc(-c4cccnc4)n3)cc2)c1` ?
-- reply 34

* * *

studyTarget: MAPK13 (human) (UniProt O15264)
Sequence (O15264 whole entry, looked up): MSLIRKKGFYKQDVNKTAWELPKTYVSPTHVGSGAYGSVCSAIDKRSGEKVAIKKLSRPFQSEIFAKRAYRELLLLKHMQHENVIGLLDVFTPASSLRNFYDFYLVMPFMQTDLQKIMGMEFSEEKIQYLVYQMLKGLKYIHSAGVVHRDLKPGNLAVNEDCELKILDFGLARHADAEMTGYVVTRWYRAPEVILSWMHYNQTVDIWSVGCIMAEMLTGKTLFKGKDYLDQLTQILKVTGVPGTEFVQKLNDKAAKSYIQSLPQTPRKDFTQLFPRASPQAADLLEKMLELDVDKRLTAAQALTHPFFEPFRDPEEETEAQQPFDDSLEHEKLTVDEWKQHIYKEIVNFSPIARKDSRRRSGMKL
measurementDescription: KINOMEscan competition binding
settings: compound 1.0 µM
Reported kinase still bound, per cent of control values are given for each entry in this list.
Provide only the numeric value, understood in %.

-- ask Request - read-out kinase still bound, per cent of control | tested on MAPK13 (human) (UniProt O15264) | compound `CN(C)C/C=C/C(=O)Nc1cccc(C(=O)Nc2ccc(Nc3nccc(/C(C#N)=C4\Nc5ccccc5S4)n3)cc2)c1`
-- reply 86

-- ask # get_value(readout= kinase still bound, per cent of control, system= MAPK13 (human) (UniProt O15264)) for `CN(C)C/C=C/C(=O)Nc1cccc(C(=O)Nc2ccc(Nc3nccc(-c4cccnc4)n3)cc2)c1`
-- reply 100

-- ask Give recorded kinase still bound, per cent of control with MAPK13 (human) (UniProt O15264) for the following compound: `CN(C)C/C=C/C(=O)Nc1cccc(C(=O)Nc2ccc(Nc3nccc(-c4c(-c5ccccc5)nn5ccccc45)n3)cc2)c1`
-- reply 100

Attention now turns to another entry.
-- ask What reported kinase still bound, per cent of control corresponds to `Cc1cc(NC(=O)c2cccc(NC(=O)/C=C/CN(C)C)c2)ccc1Nc1nccc(-c2cccnc2)n1` on MAPK13 (human) (UniProt O15264)?
-- reply 100
